Molecular target: Human GPR120 short form (Homo sapiens, UniProt Q5NUL3)
Construct: expressed in transfected cells
Sequence (Q5NUL3 whole entry): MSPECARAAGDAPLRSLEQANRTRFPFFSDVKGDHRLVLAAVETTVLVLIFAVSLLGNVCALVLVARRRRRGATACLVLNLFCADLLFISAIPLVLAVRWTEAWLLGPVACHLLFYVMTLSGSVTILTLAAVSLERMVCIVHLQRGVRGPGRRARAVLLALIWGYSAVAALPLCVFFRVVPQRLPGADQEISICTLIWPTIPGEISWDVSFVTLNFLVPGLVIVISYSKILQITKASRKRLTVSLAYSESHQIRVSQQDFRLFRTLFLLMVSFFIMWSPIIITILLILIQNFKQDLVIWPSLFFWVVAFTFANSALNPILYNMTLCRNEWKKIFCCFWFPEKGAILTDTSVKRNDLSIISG
Assay: Human GPR120 calcium flux assay (FLIPR), Procedure Calcium A
Format: cell-based
Conditions: HEK-293 cells expressing human GPR120 short form, 2500 cells/well; read-out: GPR120 Ca2+ Assay A EC50
Threshold 200 nM. EC50 below it: Y. EC50 at it or above: N.

Worked set:
{"columns": ["Compound", "Label Class"],
 "data": [
  ["CCc1ccc(-c2cc(Cl)sc2COc2ccc(CCCO)c(F)c2F)cc1 [Cpd 14]", "Y"],
  ["CCc1ccc(-c2snc(Cl)c2COc2c(F)cc(CCC(=O)O)cc2F)cc1 [Cpd 124]", "Y"],
  ["COc1cc(OCc2c(Cl)nsc2-c2ccccc2C)ccc1CCC(=O)O [Cpd 222]", "N"],
  ["Cc1c(CCCO)cc(F)c(OCc2c(-c3ccc(Cl)cc3)nsc2C(F)(F)F)c1F [Cpd 223]", "N"],
  ["Cc1c(CCC(=O)O)ccc(OCc2csnc2-c2ccc(Cl)cc2)c1C [Cpd 166]", "N"]
]}

Exam item: Bench note: check whether CCc1ccc(-c2cscc2COc2ccc(CCC(=O)O)c(F)c2F)cc1 [Cpd 43] shows EC50 below 200 nM
Marked response: Y

Exam item: Check CCc1ccc(-c2cc(Cl)sc2COc2ccc(CCC(=O)O)c(F)c2F)cc1 [Cpd 11] too.
Marked response: Y

----------
Molecular target: Human GPR120 short form (Homo sapiens)
Construct: expressed in transfected cells
Assay: Human GPR120 calcium flux assay (FLIPR), Procedure Calcium A
Format: cell-based
Conditions: HEK-293 cells expressing human GPR120 short form, 2500 cells/well; read-out: GPR120 Ca2+ Assay A EC50
Readout Name: pEC50
For clarity, pEC50 is expressed as the negative log10 of concentration in mol/L.

{"columns": ["Compound", "Recorded Number"],
 "data": [
  ["O=C(O)CCc1cc(F)c(OCc2sc(Cl)cc2-c2ccc(Cl)cc2)c(F)c1 [Cpd 10]", 6.91]
]}

Next up:
Exam item: Field request: pEC50 | item: O=C(O)/C=C/c1ccc(OCc2c(Cl)nsc2-c2ccc(Cl)cc2)c(F)c1F [Cpd 185]
Marked response: 6.52

----------
Molecular target: long form of human GPR120 (Homo sapiens, UniProt Q5NUL3)
Sequence (Q5NUL3 1-377 isoform Q5NUL3-1): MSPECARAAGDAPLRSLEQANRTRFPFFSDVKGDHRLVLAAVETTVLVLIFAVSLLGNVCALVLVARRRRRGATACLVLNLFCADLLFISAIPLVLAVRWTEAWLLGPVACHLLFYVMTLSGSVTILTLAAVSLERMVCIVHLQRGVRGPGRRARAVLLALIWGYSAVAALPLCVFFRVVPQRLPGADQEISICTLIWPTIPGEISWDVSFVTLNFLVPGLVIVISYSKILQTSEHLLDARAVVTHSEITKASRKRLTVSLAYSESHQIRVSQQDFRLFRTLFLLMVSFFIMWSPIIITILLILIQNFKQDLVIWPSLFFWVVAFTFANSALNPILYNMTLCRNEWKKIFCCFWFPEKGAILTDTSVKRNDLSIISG
Sequence (P32121 whole entry partner): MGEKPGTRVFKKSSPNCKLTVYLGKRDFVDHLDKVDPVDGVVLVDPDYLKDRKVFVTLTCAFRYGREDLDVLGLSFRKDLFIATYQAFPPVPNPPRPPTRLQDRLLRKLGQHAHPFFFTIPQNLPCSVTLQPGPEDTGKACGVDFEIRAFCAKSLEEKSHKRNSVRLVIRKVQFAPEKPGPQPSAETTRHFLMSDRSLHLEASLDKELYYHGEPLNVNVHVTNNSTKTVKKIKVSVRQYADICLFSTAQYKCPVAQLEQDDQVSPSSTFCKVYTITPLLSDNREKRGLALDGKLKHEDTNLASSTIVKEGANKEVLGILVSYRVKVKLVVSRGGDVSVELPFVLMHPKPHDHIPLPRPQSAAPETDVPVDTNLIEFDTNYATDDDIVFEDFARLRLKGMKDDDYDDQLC
Test: Human GPR120 DiscoveRx PathHunter Beta-Arrestin assay, Procedure β-arrestin A
Settings: PathHunter CHO-K1 GPR120 β-Arrestin cell line, 3000 cells per well, read-out: hGPR120 β-arrestin A EC50
Threshold 100 nM. EC50 below it: TRUE. EC50 at it or above: FALSE.

Worked set:
{"columns": ["Compound", "Measurement Target", "Label Class"],
 "data": [
  ["CCc1ccc(-c2cc(Cl)sc2COc2ccc(CCC(=O)O)c(C)c2C)cc1", "long form of human GPR120 (Homo sapiens, UniProt Q5NUL3)", "FALSE"],
  ["CCc1ccc(-c2cscc2COc2c(F)cc(CCC(=O)O)cc2F)cc1", "long form of human GPR120 (Homo sapiens, UniProt Q5NUL3)", "FALSE"],
  ["Cc1ccc(-c2snc(C)c2COc2c(F)cc(CCC(=O)O)cc2F)c(F)c1", "long form of human GPR120 (Homo sapiens, UniProt Q5NUL3)", "FALSE"]
]}

// switching to the query compound
Exam item: Bench note: check whether Cc1ccc(-c2snc(Cl)c2COc2c(F)cc(CCC(=O)O)cc2F)c(F)c1 [Cpd 252] shows EC50 below 100 nM
Marked response: FALSE
